test: Biodistribution in PC-3 tumor-bearing NRG mice (Example 1)
Assay type: in vivo
condition_summary: male, NRG (NOD.Cg-Rag1tm1Mom Il2rgtm1Wjl/SzJ), mouse, spleen, iv, 1.84 MBq, total radioactivity; 60 min p.i.; read-out: Biodistribution Spleen, Mean
Protocol: The mice were sacrificed by CO2 inhalation at 30 min, 1 h, and 2 h p.i. Blood was collected by cardiac puncture. Organs/tissues were harvested, rinsed with PBS, blotted dry, and weighed. The activity in tissues was assayed by gamma counter and expressed as the percentage injected dose per gram of tissue (% ID/g).
property: tissue uptake at 1 h (%ID/g)

1) CC(C)C[C@@H](CN1CCC[C@H]1C(N)=O)NC(=O)[C@H](Cc1c[nH]cn1)NC(=O)CNC(=O)[C@@H](NC(=O)[C@H](C)NC(=O)[C@H](Cc1c[nH]c2ccccc12)NC(=O)[C@H](CCC(N)=O)NC(=O)[C@@H](Cc1ccccc1)NC(=O)COCC(=O)Nc1ccc(CNC(=O)CN2CCN(CC(=O)O)CCN(CC(=O)O)CCN(CC(=O)O)CC2)cc1)C(C)C [^68Ga-ProBOMB1, metal not drawn] ... 0.44

###

test: Biodistribution in PC-3 tumor-bearing NSG mice (Example 2)
Format: in vivo
condition_summary: male, NSG (NOD.Cg-Prkdc^scid Il2rg^tm1Wjl/SzJ), mouse, heart, iv, total radioactivity, 120 MIN p.i.; read-out: Biodistribution HEART, Mean
property: tissue uptake at 2 h (%ID/g)

1) CC(C)C[C@@H](CN1CCC[C@H]1C(N)=O)NC(=O)[C@H](Cc1c[nH]cn1)NC(=O)CNC(=O)[C@@H](NC(=O)[C@H](C)NC(=O)[C@H](Cc1c[nH]c2ccccc12)NC(=O)[C@H](CCC(N)=O)NC(=O)[C@@H](Cc1ccccc1)NC(=O)CN1CCC(NC(=O)CN2CCN(CC(=O)O)CCN(CC(=O)O)CCN(CC(=O)O)CC2)CC1)C(C)C [^68Ga-ProBOMB2, metal not drawn] ... 0.05

###

test: Biodistribution in PC-3 tumor-bearing NRG mice (Example 1)
Format: in vivo
condition_summary: male, NRG (NOD.Cg-Rag1tm1Mom Il2rgtm1Wjl/SzJ), mouse, bone, iv, 1.84 MBq, total radioactivity; 120 min p.i.; read-out: Biodistribution Bone, Mean
property: tissue uptake at 2 h (%ID/g)

1. CC(C)C[C@@H](CN1CCC[C@H]1C(N)=O)NC(=O)[C@H](Cc1c[nH]cn1)NC(=O)CNC(=O)[C@@H](NC(=O)[C@H](C)NC(=O)[C@H](Cc1c[nH]c2ccccc12)NC(=O)[C@H](CCC(N)=O)NC(=O)[C@@H](Cc1ccccc1)NC(=O)COCC(=O)Nc1ccc(CNC(=O)CN2CCN(CC(=O)O)CCN(CC(=O)O)CCN(CC(=O)O)CC2)cc1)C(C)C [^68Ga-ProBOMB1, metal not drawn] ... 0.39

###

test: Biodistribution in PC-3 tumor-bearing NRG mice (Example 1)
Type: in vivo
condition_summary: male, NRG (NOD.Cg-Rag1tm1Mom Il2rgtm1Wjl/SzJ), mouse, brain, iv, 1.84 MBq, total radioactivity; 30 min p.i.; read-out: Biodistribution Brain, Mean
property: tissue uptake at 0.5 h (%ID/g)

1) CC(C)C[C@@H](CN1CCC[C@H]1C(N)=O)NC(=O)[C@H](Cc1c[nH]cn1)NC(=O)CNC(=O)[C@@H](NC(=O)[C@H](C)NC(=O)[C@H](Cc1c[nH]c2ccccc12)NC(=O)[C@H](CCC(N)=O)NC(=O)[C@@H](Cc1ccccc1)NC(=O)COCC(=O)Nc1ccc(CNC(=O)CN2CCN(CC(=O)O)CCN(CC(=O)O)CCN(CC(=O)O)CC2)cc1)C(C)C [^68Ga-ProBOMB1, metal not drawn] ... 0.02

###

test: Biodistribution in PC-3 tumor-bearing NSG mice (Example 2)
Type: in vivo
condition_summary: male, NSG (NOD.Cg-Prkdc^scid Il2rg^tm1Wjl/SzJ), mouse, bone, iv, total radioactivity, 60 MIN BLOCKED, co-injection of 100 μg of [D-Phe^6,Leu-NHEt^13,des-Met^14]Bombesin(6-14); read-out: Biodistribution BONE, Mean
property: tissue uptake at 1 h (%ID/g)

1. CC(C)C[C@@H](CN1CCC[C@H]1C(N)=O)NC(=O)[C@H](Cc1c[nH]cn1)NC(=O)CNC(=O)[C@@H](NC(=O)[C@H](C)NC(=O)[C@H](Cc1c[nH]c2ccccc12)NC(=O)[C@H](CCC(N)=O)NC(=O)[C@@H](Cc1ccccc1)NC(=O)CN1CCC(NC(=O)CN2CCN(CC(=O)O)CCN(CC(=O)O)CCN(CC(=O)O)CC2)CC1)C(C)C [^68Ga-ProBOMB2, metal not drawn] ... 0.13

###

test: Biodistribution in PC-3 tumor-bearing NSG mice (Example 2)
Type: in vivo
condition_summary: male, NSG (NOD.Cg-Prkdc^scid Il2rg^tm1Wjl/SzJ), mouse, fat, iv, total radioactivity, 60 MIN p.i.; read-out: Biodistribution FAT, Mean
property: tissue uptake at 1 h

1) CC(C)C[C@@H](CN1CCC[C@H]1C(N)=O)NC(=O)[C@H](Cc1c[nH]cn1)NC(=O)CNC(=O)[C@@H](NC(=O)[C@H](C)NC(=O)[C@H](Cc1c[nH]c2ccccc12)NC(=O)[C@H](CCC(N)=O)NC(=O)[C@@H](Cc1ccccc1)NC(=O)CN1CCC(NC(=O)CN2CCN(CC(=O)O)CCN(CC(=O)O)CCN(CC(=O)O)CC2)CC1)C(C)C [^68Ga-ProBOMB2, metal not drawn] ... 0.06 %ID/g

###

test: Biodistribution in PC-3 tumor-bearing NRG mice (Example 1)
Type: in vivo
condition_summary: male, NRG (NOD.Cg-Rag1tm1Mom Il2rgtm1Wjl/SzJ), mouse, muscle, iv, 1.84 MBq, total radioactivity; 30 min p.i.; read-out: Biodistribution Muscle, Mean
property: tissue uptake at 0.5 h (%ID/g)

1. CC(C)C[C@@H](CN1CCC[C@H]1C(N)=O)NC(=O)[C@H](Cc1c[nH]cn1)NC(=O)CNC(=O)[C@@H](NC(=O)[C@H](C)NC(=O)[C@H](Cc1c[nH]c2ccccc12)NC(=O)[C@H](CCC(N)=O)NC(=O)[C@@H](Cc1ccccc1)NC(=O)COCC(=O)Nc1ccc(CNC(=O)CN2CCN(CC(=O)O)CCN(CC(=O)O)CCN(CC(=O)O)CC2)cc1)C(C)C [^68Ga-ProBOMB1, metal not drawn] ... 0.36

###

test: Biodistribution in PC-3 tumor-bearing NSG mice (Example 2)
Assay type: in vivo
condition_summary: male, NSG (NOD.Cg-Prkdc^scid Il2rg^tm1Wjl/SzJ), mouse, tumor/pancreas, iv, total radioactivity, TUMOR-TO-PANCREAS ratio, Mean, 60 MIN p.i.; read-out: TUMOR-TO-[…] ratio, Mean
property: tissue to tissue ratio at 1 h

1. CC(C)C[C@@H](CN1CCC[C@H]1C(N)=O)NC(=O)[C@H](Cc1c[nH]cn1)NC(=O)CNC(=O)[C@@H](NC(=O)[C@H](C)NC(=O)[C@H](Cc1c[nH]c2ccccc12)NC(=O)[C@H](CCC(N)=O)NC(=O)[C@@H](Cc1ccccc1)NC(=O)CN1CCC(NC(=O)CN2CCN(CC(=O)O)CCN(CC(=O)O)CCN(CC(=O)O)CC2)CC1)C(C)C [^68Ga-ProBOMB2, metal not drawn] ... 9.32

###

test: Biodistribution in PC-3 tumor-bearing NRG mice (Example 1)
Format: in vivo
condition_summary: male, NRG (NOD.Cg-Rag1tm1Mom Il2rgtm1Wjl/SzJ), mouse, pancreas, iv, 1.84 MBq, total radioactivity; 60 min p.i.; read-out: Biodistribution Pancreas, Mean
Protocol: The mice were sacrificed by CO2 inhalation at 30 min, 1 h, and 2 h p.i. Blood was collected by cardiac puncture. Organs/tissues were harvested, rinsed with PBS, blotted dry, and weighed. The activity in tissues was assayed by gamma counter and expressed as the percentage injected dose per gram of tissue (% ID/g).
property: tissue uptake at 1 h (%ID/g)

1. CC(C)C[C@@H](CN1CCC[C@H]1C(N)=O)NC(=O)[C@H](Cc1c[nH]cn1)NC(=O)CNC(=O)[C@@H](NC(=O)[C@H](C)NC(=O)[C@H](Cc1c[nH]c2ccccc12)NC(=O)[C@H](CCC(N)=O)NC(=O)[C@@H](Cc1ccccc1)NC(=O)COCC(=O)Nc1ccc(CNC(=O)CN2CCN(CC(=O)O)CCN(CC(=O)O)CCN(CC(=O)O)CC2)cc1)C(C)C [^68Ga-ProBOMB1, metal not drawn] ... 4.68

###

test: Biodistribution in PC-3 tumor-bearing NRG mice (Example 1)
Assay type: in vivo
condition_summary: male, NRG (NOD.Cg-Rag1tm1Mom Il2rgtm1Wjl/SzJ), mouse, seminal glands, iv, 1.84 MBq, total radioactivity; 60 min p.i.; read-out: Biodistribution Seminal glands, Mean
Procedure: The mice were sacrificed by CO2 inhalation at 30 min, 1 h, and 2 h p.i. Blood was collected by cardiac puncture. Organs/tissues were harvested, rinsed with PBS, blotted dry, and weighed. The activity in tissues was assayed by gamma counter and expressed as the percentage injected dose per gram of tissue (% ID/g).
property: tissue uptake at 1 h (%ID/g)

1) CC(C)C[C@@H](CN1CCC[C@H]1C(N)=O)NC(=O)[C@H](Cc1c[nH]cn1)NC(=O)CNC(=O)[C@@H](NC(=O)[C@H](C)NC(=O)[C@H](Cc1c[nH]c2ccccc12)NC(=O)[C@H](CCC(N)=O)NC(=O)[C@@H](Cc1ccccc1)NC(=O)COCC(=O)Nc1ccc(CNC(=O)CN2CCN(CC(=O)O)CCN(CC(=O)O)CCN(CC(=O)O)CC2)cc1)C(C)C [^68Ga-ProBOMB1, metal not drawn] ... 1.08
